- Test system: Sonic hedgehog protein (Shh)
- test_summary: small-molecule binders of Shh protein, primary screen, biochemical, small-molecule microarray, 635/667 nm fluorescence (AID 1151);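 also: Shh protein binding to compounds spotted on small-molecule microarray slides; score combines spot fluorescence intensity with signal-to-noise across triplicate slides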
- measurement_conditions: small-molecule microarray binding, 635 nm fluorescence; higher = more signal
Tick T if composite z-score is 1 or greater. Tick F if composite z-score is less than 1.

molecule: CC(C)(C)OC(=O)N1[C@@H](C=C(Br)Br)COC1(C)C
class_assignment: F
--
molecule: O=C1c2ccccc2[C@@]2(Cc3ccccc3N(CC(F)(F)F)C2=O)[C@H](c2ccc(CO)cc2)N1Cc1ccccc1
class_assignment: T
--
molecule: C=C(CCCC)/C(=C/C[C@@H](OC(C)=O)c1ccc(OCCO)cc1)c1cc(C(=O)OC)ccc1OC
class_assignment: T
--
molecule: O=C(c1ccccc1)N1Cc2ccccc2C[C@@]2(N=C(c3ccc(OCCCO)cc3)O[C@H]2c2ccccc2)C1=O
class_assignment: T
--
molecule: C=CCNC(=O)[C@@H]1[C@H]2C(=O)O[C@H](c3ccccc3)[C@H](c3ccccc3)N2[C@H](c2ccc(OCCO)cc2)[C@@]12C(=O)Nc1ccc(C#CC3=CCCCC3)cc12
class_assignment: T
--
molecule: O=C1OC[C@@H](c2ccccc2)n2cc(/C=C/c3ccccc3)cc21
class_assignment: F
--
molecule: COC(=O)C1(CC(C)C)C=C2C(=C(C)C(=O)C2C)CN1 (stereo unspecified)
class_assignment: F
--
molecule: COC(=O)[C@]1(Cc2ccccc2N=[N+]=[N-])N=C(c2ccc(OCCCO)cc2)O[C@@H]1c1ccccc1CN=[N+]=[N-]
class_assignment: F
--
molecule: COc1cc(Cc2cc3c(c(CCc4ccccc4)n2)[Si](C(C)C)(C(C)C)O[C@H]3c2ccccc2)cc(OC)c1OC
class_assignment: F
--
molecule: O=C1NC(=O)C2C1C=CC(C(O)C1CCCCC1)N2Nc1ccccn1 (stereo unspecified)
class_assignment: F
--
molecule: COc1ccc([Si](C)(C)[C@H]2[C@H](CC(=O)N(CCO)Cc3ccccc3)O[C@@]3(C(=O)N(Cc4ccc(N5C(=O)c6cccc7cccc5c67)cc4)c4ccccc43)[C@@H]2C)cc1
class_assignment: T
--
molecule: C=C(C(=O)CC[C@H](OC(=O)c1ccccc1-c1ccccc1C(=O)O)c1ccc(OCCO)cc1)C(C)C
class_assignment: F
--
molecule: C=CC[C@H](O)c1ccc(O)c2ccccc12
class_assignment: T
--
molecule: CCCN1C(=O)[C@@]2(c3ccc([N+](=O)[O-])cc3)CC(=O)N(C3CCCCC3)[C@@H]2c2ccc(CO)cc21
class_assignment: T
--
molecule: CCOC(=O)C[C@H]1[C@H](OC(=O)c2cc3ccccc3oc2=O)[C@@H](NC(=O)Cc2ccc(OC)cc2)c2cc(OCCCO)ccc2N1C(=O)Cc1ccc(OC)cc1
class_assignment: T
--
molecule: COC(=O)[C@@]1(Cc2ccccc2)[C@H]2c3cc(C(=O)N(C)C)n(Cc4nc5ccccc5[nH]4)c3C[C@H]2CN1C(=O)c1ccccc1
class_assignment: F

###

- test_summary: small-molecule microarray binders of probe aWnt5a, primary screen, biochemical, biotinylated probe, 635/667 nm fluorescence (AID 1113);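 also: score merges 667 nm fluorescence intensity with signal-to-noise per printed feature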
- measurement_conditions: higher = more signal
Below is a list of entries, each paired with its recorded composite z-score value.
assay_metric: composite z-score

input_smiles: CCOC(=O)C[C@H]1[C@H](OC(=O)c2cc3ccccc3oc2=O)[C@@H](NC(=O)c2ccc(-c3ccccc3)cc2)c2cc(OCCCO)ccc2N1C(=O)Cc1ccc(OC)cc1
test_result: -0.0735
//
input_smiles: CC(C)(C)OC(=O)CC[C@@]1(C(=O)N2CCOCC2)N=C(c2ccc(OCCCO)cc2)O[C@@H]1c1ccccc1CN=[N+]=[N-]
test_result: 0.281
//
input_smiles: O=C1O[C@H](c2ccccc2)[C@H](c2ccccc2)N2[C@H]1[C@@H](C(=O)O)[C@]1(C(=O)Nc3ccc(C#CC4(O)CCCCCC4)cc31)[C@H]2c1ccccc1OCCO
test_result: 0.0839

Cited source: PubChem BioAssay
